Test details: In-vivo plasma to lung partition coefficients of the compound, logP(lung) in rat
Format: ADME, cell-free
Observable: logP(lung)

Compound	Observable	Value
CC1(C)S[C@@H]2[C@H](NC(=O)COc3ccccc3)C(=O)N2[C@H]1C(=O)O [PENICILLIN V]	logP(lung)	-0.8
COn1cc(C(=O)O)c(=O)c2cc3c(cc21)OCO3 [MILOXACIN]	logP(lung)	-0.29
CC(C)(C)NC[C@H](O)COc1nsnc1N1CCOCC1 [TIMOLOL]	logP(lung)	1.43
COc1cccc2c1C(=O)c1c(O)c3c(c(O)c1C2=O)C[C@@](O)(C(=O)CO)C[C@@H]3O[C@H]1C[C@H](N)[C@H](O)[C@H](C)O1 [DOXORUBICIN]	logP(lung)	0.53

====

Test details: In-vivo plasma to lung partition coefficients of the compound, logP(lung) in rat
Assay type: ADME, cell-free
Items are presented alongside their recorded logP(lung).

Compound	logP(lung)
CCCCCCC1(CC)C(=O)NC(=O)NC1=O	0.08
CN1CCC[C@H]1c1cccnc1	0.32
CCCC1O[C@@H]2C[C@H]3[C@@H]4CCC5=CC(=O)C=C[C@]5(C)[C@H]4[C@@H](O)C[C@]3(C)[C@]2(C(=O)CO)O1 (stereo partly specified) [BUDESONIDE]	0.94
O=C1Nc2ccc(Cl)cc2C(c2ccccc2Cl)=NC1O (stereo unspecified)	0.44
CCn1cc(C(=O)O)c(=O)c2ccc(C)nc21	-0.48
CCCC1(CC)C(=O)NC(=O)NC1=O	0.16
CN1C(=O)CC[C@H]1c1cccnc1	-0.18
O=C(O)c1ccccc1O	-0.72
CCCC(CCC)C(=O)O	-0.38
CCOc1ccccc1C(N)=O [ETHENZAMIDE]	-0.03
CC(C)NCC(O)COc1ccc(COCCOC(C)C)cc1 (stereo unspecified)	1.62
CC1(C)[C@@H](O)CC[C@]2(C)[C@H]3C(=O)C=C4[C@@H]5C[C@@](C)(C(=O)O)CC[C@]5(C)CC[C@@]4(C)[C@]3(C)CC[C@@H]12	-0.66
COC(=O)C(c1ccccc1)C1CCCCN1 (stereo unspecified) [METHYLPHENIDATE]	1.54
Cc1nc(Nc2ccc(F)cc2)nc(N2CCc3ccccc3C2C)c1C.Cl (stereo unspecified) [REVAPRAZAN HYDROCHLORIDE]	1.34
CCC1(c2ccccc2)C(=O)NC(=O)NC1=O	-0.08
CCCCCCCCC1(CC)C(=O)NC(=O)NC1=O	0.49
OC(CCN1CCCCC1)(c1ccccc1)C1CC2C=CC1C2 (stereo unspecified)	1.79
O=C1NC(=O)C(c2ccccc2)(c2ccccc2)N1	-0.1
CC(C)=CCN1CC[C@]2(C)c3cc(O)ccc3C[C@H]1[C@H]2C [(+)-PENTAZOCINE]	1.43
CN(C/C=C/C#CC(C)(C)C)Cc1cccc2ccccc12	0.41
CCCCCCCC1(CC)C(=O)NC(=O)NC1=O	0.12

====

Test details: In-vitro air to blood partition coefficients of the compound, logK(blood) (human/rat)
Assay conditions: octanol/water
Recorded logK(blood) values for a group of molecules are listed next.
Observable: logK(blood)

Molecule	Observable	Value
CCC(C)CC	logK(blood)	-0.37
Cc1ccccc1C [O-XYLENE]	logK(blood)	1.42
CCCC(C)C	logK(blood)	-0.39
CCCCC [PENTANE]	logK(blood)	-0.29
COC(F)(F)C(Cl)Cl [METHOXYFLURANE]	logK(blood)	1.28
FC(F)OC(F)(F)C(F)Cl (configuration not stated)	logK(blood)	0.35
CCOCC [ETHER]	logK(blood)	1.11

Recorded values, source ChEMBL document CHEMBL1795228.
